TARGET_OR_SYSTEM: EP3 (Homo sapiens, UniProt P43115)
Sequence (P43115 1-390): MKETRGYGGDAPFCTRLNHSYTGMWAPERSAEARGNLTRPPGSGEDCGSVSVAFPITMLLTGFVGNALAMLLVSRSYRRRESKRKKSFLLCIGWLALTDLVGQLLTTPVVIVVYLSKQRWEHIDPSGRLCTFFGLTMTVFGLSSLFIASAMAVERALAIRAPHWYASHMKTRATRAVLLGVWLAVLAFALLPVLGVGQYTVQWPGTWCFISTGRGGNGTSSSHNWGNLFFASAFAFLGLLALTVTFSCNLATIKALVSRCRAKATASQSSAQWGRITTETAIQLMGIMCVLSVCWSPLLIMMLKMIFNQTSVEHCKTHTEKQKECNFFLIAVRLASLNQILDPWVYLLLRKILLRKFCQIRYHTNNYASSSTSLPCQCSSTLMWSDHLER
EXPERIMENTAL_PROTOCOL: EP3 functional assay
OBSERVED_PROPERTY: pEC50
Give bare numbers, as −log10 of the molar value.

The following compounds each have a reported value; give each one's pEC50.
1. C[C@@H](O)CCC[C@H](O)/C=C/[C@H]1[C@H](O)CC(=O)[C@@H]1C/C=C\CCCC(=O)O
2. C[C@@H](O)CCC[C@H](O)/C=C/[C@@H]1[C@@H](CCCc2ccc(C(=O)O)s2)[C@H](Cl)C[C@H]1O
3. C[C@@H](O)CCC[C@H](O)/C=C/[C@H]1[C@H](O)CC(=O)[C@@H]1CCCCCCC(=O)O

Reply text:
1: 7.96; 2: 6.30; 3: 7.68

---

TARGET_OR_SYSTEM: EP2 (Homo sapiens)
Sequence (P43116 whole entry): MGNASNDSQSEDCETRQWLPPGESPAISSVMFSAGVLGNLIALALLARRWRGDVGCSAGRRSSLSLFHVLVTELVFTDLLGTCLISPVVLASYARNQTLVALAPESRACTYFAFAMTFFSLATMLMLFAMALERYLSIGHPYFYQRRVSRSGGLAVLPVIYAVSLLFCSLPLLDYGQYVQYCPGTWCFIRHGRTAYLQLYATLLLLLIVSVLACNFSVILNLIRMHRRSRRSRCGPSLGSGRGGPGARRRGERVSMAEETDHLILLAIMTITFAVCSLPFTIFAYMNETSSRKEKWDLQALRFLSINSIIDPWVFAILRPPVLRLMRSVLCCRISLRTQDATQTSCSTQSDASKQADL
EXPERIMENTAL_PROTOCOL: EP2 cAMP assay
Type: cell-based
OBSERVED_PROPERTY: pEC50
Numbers only, as −log10 of the molar value.

compound="COC(/C=C/[C@@H]1[C@@H](CCCc2ccc(C(=O)O)s2)[C@H](Cl)C[C@H]1O)CCC[C@@H](C)O (stereo partly drawn) [AGN-219310]" numeric_readout=8.52
compound="C[C@H](O)CCC[C@H](O)/C=C/[C@@H]1[C@@H](CCCc2ccc(C(=O)O)s2)[C@H](Cl)C[C@H]1O [AGN-221568]" numeric_readout=8.85
compound="C[C@@H](O)CCC[C@H](O)/C=C/[C@@H]1[C@@H](CCCc2ccc(C(=O)O)s2)[C@H](Cl)C[C@H]1O [AGN-217510]" numeric_readout=10.22
compound="C[C@@H](O)CCC[C@H](O)/C=C/[C@H]1[C@H](O)CC(=O)[C@@H]1C/C=C\\CCCC(=O)O [AGN-191286]" numeric_readout=9.15
compound="COC(/C=C/[C@@H]1[C@@H](CCCc2ccc(C(=O)O)s2)[C@H](Cl)C[C@H]1O)CCC[C@@H](C)O (stereo partly drawn) [AGN-219309]" numeric_readout=7.60

Next:
Inquiry: Give pEC50 for C[C@@H](O)CCC[C@H](O)/C=C/[C@H]1[C@H](O)CC(=O)[C@@H]1CCCCCCC(=O)O [AGN-191287]
Reply text: 9.05

---

Task for the reader: assign each of the following compounds its reported EP4 Ca2+ signal % PGE2.
TARGET_OR_SYSTEM: EP4 (Homo sapiens, UniProt P35408)
Sequence (P35408 whole entry): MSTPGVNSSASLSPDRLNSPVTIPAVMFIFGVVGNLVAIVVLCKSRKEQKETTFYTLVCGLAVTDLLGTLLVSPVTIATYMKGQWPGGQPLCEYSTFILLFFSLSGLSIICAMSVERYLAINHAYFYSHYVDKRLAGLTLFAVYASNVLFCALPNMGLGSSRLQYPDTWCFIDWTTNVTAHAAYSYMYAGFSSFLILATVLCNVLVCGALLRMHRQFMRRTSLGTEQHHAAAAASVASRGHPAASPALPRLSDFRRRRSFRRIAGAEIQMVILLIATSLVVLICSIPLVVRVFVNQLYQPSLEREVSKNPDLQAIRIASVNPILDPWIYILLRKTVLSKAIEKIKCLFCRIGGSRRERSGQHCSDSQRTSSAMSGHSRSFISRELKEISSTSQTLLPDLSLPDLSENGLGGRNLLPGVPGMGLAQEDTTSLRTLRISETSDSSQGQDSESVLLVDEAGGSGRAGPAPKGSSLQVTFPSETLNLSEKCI
EXPERIMENTAL_PROTOCOL: EP4 Ca2+ signal assay
Assay type: cell-based
CONDITION: relative to PGE2
Excerpt: U.S. patent application Ser. No. 11/553,143, filed on Oct. 26, 2006, incorporated by reference herein, describes the methods used to obtain the in vitro data in Table 1 below.
Numbers only, in %.

Past entries and their recorded results:
compound="C[C@@H](O)CCC[C@H](O)/C=C/[C@H]1[C@H](O)CC(=O)[C@@H]1CCCCCCC(=O)O [AGN-191287]" observed_property="EP4 Ca2+ signal % PGE2" numeric_readout=102
compound="C[C@@H](O)CCC[C@H](O)/C=C/[C@H]1[C@H](O)CC(=O)[C@@H]1C/C=C\\CCCC(=O)O [AGN-191286]" observed_property="EP4 Ca2+ signal % PGE2" numeric_readout=100
compound="C[C@@H](O)CCC[C@H](O)/C=C/[C@@H]1[C@@H](CCCc2ccc(C(=O)O)s2)[C@H](Cl)C[C@H]1O [AGN-217510]" observed_property="EP4 Ca2+ signal % PGE2" numeric_readout=121

Next:
Inquiry: Give EP4 Ca2+ signal % PGE2 for C[C@H](O)CCC[C@H](O)/C=C/[C@@H]1[C@@H](CCCc2ccc(C(=O)O)s2)[C@H](Cl)C[C@H]1O [AGN-221568]
Reply text: 120

---

TARGET_OR_SYSTEM: EP2 (Homo sapiens)
EXPERIMENTAL_PROTOCOL: EP2 Ca2+ signal assay
Format: cell-based
Labelling field: enter TRUE if recorded EC50 is less than 0.03 µM. Enter FALSE if it equals or exceeds that cut-off.

# example entries with known answers
compound=C[C@@H](O)CCC[C@H](O)/C=C/[C@H]1[C@H](O)CC(=O)[C@@H]1C/C=C\CCCC(=O)O group=TRUE
compound="COC(/C=C/[C@@H]1[C@@H](CCCc2ccc(C(=O)O)s2)[C@H](Cl)C[C@H]1O)CCC[C@@H](C)O (stereo partly drawn) [AGN-219309]" group=FALSE
compound=C[C@H](O)CCC[C@H](O)/C=C/[C@@H]1[C@@H](CCCc2ccc(C(=O)O)s2)[C@H](Cl)C[C@H]1O group=TRUE
compound=C[C@@H](O)CCC[C@H](O)/C=C/[C@H]1[C@H](O)CC(=O)[C@@H]1CCCCCCC(=O)O group=FALSE

Inquiry: Lab note: confirm whether the reported EC50 for this compound is below 0.03 µM, equality not counting. compound: COC(/C=C/[C@@H]1[C@@H](CCCc2ccc(C(=O)O)s2)[C@H](Cl)C[C@H]1O)CCC[C@@H](C)O (stereo partly drawn) [AGN-219310]
Reply text: FALSE

Inquiry: Lab note: confirm whether the reported EC50 for this compound is below 0.03 µM, equality not counting. compound: `C[C@@H](O)CCC[C@H](O)/C=C/[C@@H]1[C@@H](CCCc2ccc(C(=O)O)s2)[C@H](Cl)C[C@H]1O`
Reply text: TRUE

---

TARGET_OR_SYSTEM: EP4 (Homo sapiens)
EXPERIMENTAL_PROTOCOL: EP4 binding assay
OBSERVED_PROPERTY: EC50 (µM)
One number for each entry, in µM.

Past entries and their recorded results:
molecule="C[C@H](O)CCC[C@H](O)/C=C/[C@@H]1[C@@H](CCCc2ccc(C(=O)O)s2)[C@H](Cl)C[C@H]1O [AGN-221568]" target_or_system="EP4 (Homo sapiens)" numeric_readout=1.28
molecule="C[C@@H](O)CCC[C@H](O)/C=C/[C@H]1[C@H](O)CC(=O)[C@@H]1C/C=C\\CCCC(=O)O [AGN-191286]" target_or_system="EP4 (Homo sapiens)" numeric_readout=1.51
molecule="C[C@@H](O)CCC[C@H](O)/C=C/[C@H]1[C@H](O)CC(=O)[C@@H]1CCCCCCC(=O)O [AGN-191287]" target_or_system="EP4 (Homo sapiens)" numeric_readout=1.67

Next:
Inquiry: Give EC50 for C[C@@H](O)CCC[C@H](O)/C=C/[C@@H]1[C@@H](CCCc2ccc(C(=O)O)s2)[C@H](Cl)C[C@H]1O [AGN-217510]
Reply text: 2.35

---

TARGET_OR_SYSTEM: EP4 (Homo sapiens)
EXPERIMENTAL_PROTOCOL: EP4 binding assay
Task for the reader: assign each of the following molecules its reported EP4 Binding % Inh.
Answers are plain numbers, in %.

Past entries and their recorded results:
molecule="C[C@H](O)CCC[C@H](O)/C=C/[C@@H]1[C@@H](CCCc2ccc(C(=O)O)s2)[C@H](Cl)C[C@H]1O [AGN-221568]" target_or_system="EP4 (Homo sapiens)" observed_property="EP4 Binding % Inh" numeric_readout=98
molecule="C[C@@H](O)CCC[C@H](O)/C=C/[C@@H]1[C@@H](CCCc2ccc(C(=O)O)s2)[C@H](Cl)C[C@H]1O [AGN-217510]" target_or_system="EP4 (Homo sapiens)" observed_property="EP4 Binding % Inh" numeric_readout=64
molecule="C[C@@H](O)CCC[C@H](O)/C=C/[C@H]1[C@H](O)CC(=O)[C@@H]1CCCCCCC(=O)O [AGN-191287]" target_or_system="EP4 (Homo sapiens)" observed_property="EP4 Binding % Inh" numeric_readout=75

Next:
Inquiry: Give EP4 Binding % Inh for C[C@@H](O)CCC[C@H](O)/C=C/[C@H]1[C@H](O)CC(=O)[C@@H]1C/C=C\CCCC(=O)O [AGN-191286]
Reply text: 75
